B1: HDV Ribozyme (parent)
chain: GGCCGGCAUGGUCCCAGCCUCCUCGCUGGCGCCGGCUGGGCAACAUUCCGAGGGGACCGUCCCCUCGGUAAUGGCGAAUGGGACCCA

- Variants of: B1
- test: self-cleavage, relative activity (ratio to wild type); higher = more cleavage; co-transcriptional
Mark Condition met for reported self-cleavage of 0.4 or greater; mark Condition not met for anything smaller.

Answered examples (5):
{"sequenceEntry": "GGCCGGCAUGGUCUCAGCCUCCUCGCUGGCGCCGGCUGGGCAACAUUCCGAGGGGACCGUCCCCUCGGUAAUGGCGAAUGUGACCCA", "qualitativeLabel": "Condition met"}
{"sequenceEntry": "GGCCGGCAUGGUCCCAACCUCCUCGCUGGCGCCGGAUGGGCAACAUUCCGAGGGGACCGUCCCCUCGGUAAUGGCGAAUGGGACCCA", "qualitativeLabel": "Condition not met"}
{"sequenceEntry": "GGCCGGCAUGGUCCCAGCCUCCCCGCUGGCGCCGGCUGGGCAACAUUCCGAGGGGACCGUCCCCUCGCUAAUGGCGAAUGGGACCCA", "qualitativeLabel": "Condition met"}
{"sequenceEntry": "GGCCGGCAUGGUCCCAGCCUCCUCGCUGGCGCCGGCUGGGCAAGAUUCCGAGGGGUCCGUCCCCUCGGUAAUGGCGAAUGGGACCCA", "qualitativeLabel": "Condition met"}
{"sequenceEntry": "GGCCGGCAUGGUCCCAGCCUCCUCGCUGGCGCCGGCUGGGCAACAUUCCGAGGGGACAGUCCCCUCGGUAAUGGCGAAUUGGACCCA", "qualitativeLabel": "Condition not met"}

Turning now to a further record.
Is the recorded value of self-cleavage equal to or greater than 0.4 for this variant? GGCCGGCAUGGUGCCAGCCUCCUCGCUGGCGCCGGUUGGGCAACAUUCCGAGGGGACCGUCCCCUCGGUAAUGGCGAAUGGGACCCA
Condition not met
